The entries below are paired with their reported EC50.
testedOn: mAChR M4 (Homo sapiens)
Construct: expressed in transfected cells; host or cells: CHO-K1 cells stably transfected with M4 cDNA and chimeric G-protein Gqi5
experimentalProtocol: mAChR M4 cell-based functional assay (calcium mobilization, potentiation of EC20 acetylcholine response)
assaySetup: mAChR M4 cell-based functional assay; >10,000 estimated for low potency compounds without plateau; read-out: EC50
measuredParameter: EC50 (nM)

• Cc1nnc2sc(C(=O)NCc3ccc(F)cn3)c(N)c2c1C = 1400
• Cc1nnc2sc(C(=O)N3CC(NC(=O)C4CC4)C3)c(N)c2c1C = 3100
• Cc1nnc2sc(C(=O)N3CC(F)(c4cccc(-c5ccncc5)c4)C3)c(N)c2c1C = 87
• Cc1nnc2sc(C(=O)N3CC(Cc4ccccc4)C3)c(N)c2c1C = 200
• Cc1nnc2sc(C(=O)NCc3ccc(C(C)(O)C(F)(F)F)cc3)c(N)c2c1C (stereo not shown) [Example B106] = 20
• Cc1nnc2sc(C(=O)NC34CC(C3)C4)c(N)c2c1C = 630
• Cc1nnc2sc(C(=O)NCc3ccc([S+]([O-])C(F)F)cc3)c(N)c2c1C (stereo not shown) [Example B478] = 23
• COc1ccc(C2CC2NC(=O)c2sc3nnc4c(c3c2N)CCCC4)cc1 (stereo not shown) = 47
• Cc1nnc2sc(C(=O)NC3CN(C(=O)OCCN(C)C)C3)c(N)c2c1C = 120
• COC1(CCC2OCCCO2)CN(C(=O)c2sc3nnc(C)c(C)c3c2N)C1 = 4300
• CS(=O)(=O)c1ccc(CNC(=O)c2sc3nnc4c(c3c2N)CCCC4)cc1 = 240
• Cc1nnc2sc(C(=O)NCc3ccc(C(C)(O)C(F)(F)F)cc3)c(N)c2c1C (single isomer, unassigned) [Example B187] = 20
• Cc1nnc2sc(C(=O)NC3CN(C(=O)c4cccc(F)c4)C3)c(N)c2c1C = 110
• Cc1nnc2sc(C(=O)NCc3ccc(OC(F)F)nc3)c(N)c2c1C = 67
• Cc1nnc2sc(C(=O)N3CCC(NC(=O)OCc4ccccc4)C3)c(N)c2c1C (stereo not shown) = 830
• Cc1nnc2sc(C(=O)NC3CCC3)c(N)c2c1C = 1000
• Cc1nnc2sc(C(=O)N3CC(N)(c4ccccc4)C3)c(N)c2c1C = 1100
• Cc1nnc2sc(C(=O)NC3CCOC3)c(N)c2c1C (stereo not shown) = 840
• Cc1ccccc1N1CCC(NC(=O)c2sc3nnc(C)c(C)c3c2N)C1 (stereo not shown) = 110

###

Form field: Emax at 30 µM (one value per entry).
testedOn: mAChR M4 (Homo sapiens, UniProt P08173)
Construct: expressed in transfected cells; host or cells: CHO-K1 cells stably transfected with M4 cDNA and chimeric G-protein Gqi5
Sequence (P08173 1-479): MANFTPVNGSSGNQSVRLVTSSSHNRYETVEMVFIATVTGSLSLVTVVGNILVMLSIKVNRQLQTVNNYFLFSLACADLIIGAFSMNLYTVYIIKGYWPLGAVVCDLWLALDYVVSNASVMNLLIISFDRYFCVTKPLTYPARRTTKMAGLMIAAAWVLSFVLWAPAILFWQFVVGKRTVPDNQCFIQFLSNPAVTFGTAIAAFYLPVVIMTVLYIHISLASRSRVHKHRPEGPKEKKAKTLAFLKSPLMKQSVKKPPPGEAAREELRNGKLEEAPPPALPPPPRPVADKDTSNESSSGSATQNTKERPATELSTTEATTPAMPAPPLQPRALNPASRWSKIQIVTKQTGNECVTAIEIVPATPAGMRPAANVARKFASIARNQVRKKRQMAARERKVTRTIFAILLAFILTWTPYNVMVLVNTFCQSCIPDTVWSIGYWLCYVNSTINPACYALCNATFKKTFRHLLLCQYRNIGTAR
experimentalProtocol: mAChR M4 cell-based functional assay (calcium mobilization, potentiation of EC20 acetylcholine response)
assaySetup: % ACh maximum at 30 μM
measuredParameter: Emax at 30 µM (%)

• COc1c(F)cc(CNC(=O)c2sc3nnc(C)c(C)c3c2N)cc1F = 84
• Cc1nnc2sc(C(=O)NCc3ccc4nonc4c3)c(N)c2c1C = 75
• Cc1nnc2sc(C(=O)NCc3ccc(OC(F)F)cn3)c(N)c2c1C = 74
• Cc1nnc2sc(C(=O)N3CC(F)(c4ccc(S(=O)(=O)CF)cc4)C3)c(N)c2c1C = 44
• Cc1nnc2sc(C(=O)NC3CN(S(=O)(=O)c4ccccc4)C3)c(N)c2c1C = 56
• Cc1nnc2sc(C(=O)N3CC(F)(c4ccccn4)C3)c(N)c2c1C = 57
• Cc1nnc2sc(C(=O)NCc3ccc(CS(C)(=O)=O)cc3)c(N)c2c1C = 69

###

testedOn: mAChR M4 (Homo sapiens)
Construct: expressed in transfected cells; host or cells: CHO-K1 cells stably transfected with M4 cDNA and chimeric G-protein Gqi5
experimentalProtocol: mAChR M4 cell-based functional assay (calcium mobilization, potentiation of EC20 acetylcholine response)
assaySetup: mAChR M4 cell-based functional assay; >10,000 estimated for low potency compounds without plateau; read-out: EC50
measuredParameter: log10 EC50 (log10 of the value in nM)

* Cc1nnc2sc(C(=O)N3CC(NCc4ccc(F)cc4)C3)c(N)c2c1C | 3.61
* Cc1nnc2sc(C(=O)NCc3ccc(C4(S(C)(=O)=O)CC4)cc3)c(N)c2c1C | 1.74
* Cc1nnc2sc(C(=O)NC3CN(C(=O)Oc4ccc(Cl)cc4)C3)c(N)c2c1C | 1.20
* Cc1nnc2sc(C(=O)NCc3ccc(S(=O)(=O)C(F)F)cc3Cl)c(N)c2c1C | 2.71
* Cc1nnc2sc(C(=O)N3CC(F)(c4ccccc4)C3)c(N)c2c1C | 2.23
* Cc1nnc2sc(C(=O)NCc3ccc(N(C)C)cc3)c(N)c2c1C | 1.84
* Cc1nnc2sc(C(=O)NCc3ccc(-c4ccccc4O)cc3)c(N)c2c1C | 2.28
* Nc1c(C(=O)NCc2ccc3c(c2)OCO3)sc2nnc3c(c12)CCCC3 | 1.79
* Cc1nnc2sc(C(=O)N3CC(F)(c4ccc(-c5ccncc5)cc4)C3)c(N)c2c1C | 2.46
* Cc1nnc2sc(C(=O)NC3CCN(C(=O)Oc4ccccc4)C3)c(N)c2c1C (stereo not drawn) | 2.00
* Cc1nnc2sc(C(=O)NCc3ccc(S(=O)(=O)N(C)C)cc3)c(N)c2c1C | 1.81
* Cc1nnc2sc(C(=O)NCc3ccc4[nH]c(C)c(C)c4c3)c(N)c2c1C | 2.28
* Cc1nnc2sc(C(=O)NCc3ccc(S(=O)(=O)C(C)(C)C(F)(F)F)cc3)c(N)c2c1C | 1.64
* Cc1nnc2sc(C(=O)N3CC(N=[N+]=[N-])(c4ccccc4)C3)c(N)c2c1C | 2.26
* Cc1nnc2sc(C(=O)NC3CN(c4nc5ccccc5s4)C3)c(N)c2c1C | 1.23
* Cc1nnc2sc(C(=O)NC3CCN(C(=O)C4CC4)C3)c(N)c2c1C (stereo not drawn) | 3.11
* Cc1nc(C)c(S(=O)(=O)N2CC(NC(=O)c3sc4nnc(C)c(C)c4c3N)C2)s1 | 1.97

###

Listing of recorded Emax at 30 µM by entry.
testedOn: mAChR M4 (Homo sapiens)
Construct: expressed in transfected cells; host or cells: CHO-K1 cells stably transfected with M4 cDNA and chimeric G-protein Gqi5
experimentalProtocol: mAChR M4 cell-based functional assay (calcium mobilization, potentiation of EC20 acetylcholine response)
assaySetup: % ACh maximum at 30 μM
measuredParameter: Emax at 30 µM (%)

* Cc1nnc2sc(C(=O)NC3CCN(c4ccc(F)cc4)C3)c(N)c2c1C (stereo not shown) | 79
* Cc1nnc2sc(C(=O)NC3CCN(S(=O)(=O)c4cccc(F)c4)C3)c(N)c2c1C (stereo not shown) | 71
* Cc1nnc2sc(C(=O)N3CC(F)(c4ccncc4)C3)c(N)c2c1C | 55
* COc1ncc(CNC(=O)c2sc3nnc(C)c(C)c3c2N)cn1 | 62
* Cc1nnc2sc(C(=O)NC3CCN(C(=O)CC4CCCCC4)C3)c(N)c2c1C (stereo not shown) | 64
* Cc1nnc2sc(C(=O)NC3CN(C(=O)Oc4cccc(N=[N+]=[N-])c4)C3)c(N)c2c1C | 68
* Cc1nnc2sc(C(=O)NC3CCC3)c(N)c2c1C | 61
* Cc1ccc(S(=O)(=O)N2CC(NC(=O)c3sc4nnc(C)c(C)c4c3N)C2)cc1F | 82
* Cc1nnc2sc(C(=O)N3CC(C4CCCCC4)C3)c(N)c2c1C | 66
* Cc1nnc2sc(C(=O)NCc3ccc(CN4CCSCC4)cc3)c(N)c2c1C | 68
* Cc1nnc2sc(C(=O)NCC3CCS(=O)(=O)CC3)c(N)c2c1C | 44
* Cc1nnc2sc(C(=O)NCc3ccc(-c4cc(O)ccc4Cl)cc3)c(N)c2c1C | 72
* Cc1nnc2sc(C(=O)N3CC4CN(c5ncccn5)CC4C3)c(N)c2c1C (stereo not shown) | 48
* Cc1nnc2sc(C(=O)NCc3ccc(CN(C)C)cc3)c(N)c2c1C | 73
* COc1cc(CNC(=O)c2sc3nnc(C)c(C)c3c2N)ccn1 | 69
* Cc1nnc2sc(C(=O)NC3CCN(S(=O)(=O)c4ccc(OC(F)(F)F)cc4)C3)c(N)c2c1C (stereo not shown) | 73
* Cc1nnc2sc(C(=O)N3CC(F)(CCC4OCCCO4)C3)c(N)c2c1C | 46
* Cc1nnc2sc(C(=O)NCc3ccc(OCF)cc3)c(N)c2c1C | 82
* Cc1nnc2sc(C(=O)NC3CN(C(=O)OC(C)(C)C)C3)c(N)c2c1C | 58
* Cc1nnc2sc(C(=O)N3CC4CN(C(=O)Oc5ccccc5)CC4C3)c(N)c2c1C (stereo not shown) | 49
* Cc1nnc2sc(C(=O)NCc3ccc(-n4ccccc4=O)c(F)c3)c(N)c2c1C | 69
* Cc1nnc2sc(C(=O)NCc3cccc(S(C)(=O)=O)c3)c(N)c2c1C | 75

From: patent US9868746B2
